test system: K562 CRISPRi cells; test: Perturb-seq pooled growth measurement (sgRNA counts, growth phenotype γ, relative activity); assay type: cell-based, human; settings: pooled growth phenotype γ of the Perturb-seq sgRNA, day 10, K562 CRISPRi cells
Label y when gamma_day10 is at or above -0.2; otherwise label n.

Query :: Has EIF2S1_ −_67827080.23-P1P2_07 (guide GAGCGAAGCGCTCGCTGAGG; listed as DNA, chemistry not fully specified) a recorded gamma_day10 greater than or equal to -0.2?
Result :: y

Query :: Has DUT_ + _48624411.23-P1P2_10 (guide GCGAGCGAGGAGACCAACGG; listed as DNA, chemistry not fully specified) a recorded gamma_day10 greater than or equal to -0.2?
Result :: n

Query :: Has ATP5E_ −_57607036.23-P1P2_01 (guide GGTGTCCTGGGGCACTCTGT; listed as DNA, chemistry not fully specified) a recorded gamma_day10 greater than or equal to -0.2?
Result :: n

Query :: Has GNB2L1_ + _180670873.23-P1P2_00 (guide GTGCAAGGCGGCGGCAGGAG; listed as DNA, chemistry not fully specified) a recorded gamma_day10 greater than or equal to -0.2?
Result :: n

Query :: Has HSPA9_ −_137911079.23-P1P2_04 (guide GGAGCTGCGCAATGCGGTGG; listed as DNA, chemistry not fully specified) a recorded gamma_day10 greater than or equal to -0.2?
Result :: y
